tested on: LOX IMVI melanoma; experiment: NCI tumour cell line growth inhibition, 48 h
I'd appreciate it if you could supply TGI values for the items below.
Please give a number only; it is taken to be in µM.

## Input Recall the recorded TGI for O=C(NO)c1ccc(Cn2c(=O)n(-c3ccccc3)c(=O)c3ccccc32)cc1 with LOX IMVI melanoma and state it.
## Output 2.62

## Input Now the same for C=C(C)[C@@H]1CC[C@]2(C(=O)O)CC[C@]3(C)[C@H](CC[C@@H]4[C@@]5(C)C/C(=C/c6cccc(I)c6)C(=O)C(C)(C)[C@@H]5CC[C@]43C)[C@@H]12
## Output 3.58

## Input Now the same for CC(=O)c1ccc2c3c1O[C@H]1c4[nH]c5ccccc5c4C[C@@]4(O)[C@@H](C2)N(CC2CC2)CC[C@]314
## Output 33

## Input Now the same for CCCCCCCCNC(C)C(O)c1ccc(SC(C)C)cc1 (stereo not given)
## Output 2.92

## Input Now the same for COc1ccc(N2N=NN(C(C)C)/C2=C(/Cl)c2nnnn2-c2ccc(OC)cc2)cc1
## Output 6.82

## Input Now the same for C[C@]12CC[C@H](O)CC1=CC[C@@H]1[C@@H]2CC[C@]2(C)C(=O)/C(=C/c3ccc([N+](=O)[O-])cc3)C[C@@H]12
## Output 22.5

## Input Now the same for c1ccc2c(c1)Sc1ccccc1N2C1CN2CCC1CC2 (stereo not given)
## Output 26.8

## Input Now the same for COc1cc2c(c(OC)c1OC)-c1ccc(SC)c(=O)cc1[C@@H](NCc1cccc([N+](=O)[O-])c1)CC2
## Output 38.1
